Target: LTB4 receptor (Homo sapiens, UniProt Q15722)
Sequence (Q15722 whole entry): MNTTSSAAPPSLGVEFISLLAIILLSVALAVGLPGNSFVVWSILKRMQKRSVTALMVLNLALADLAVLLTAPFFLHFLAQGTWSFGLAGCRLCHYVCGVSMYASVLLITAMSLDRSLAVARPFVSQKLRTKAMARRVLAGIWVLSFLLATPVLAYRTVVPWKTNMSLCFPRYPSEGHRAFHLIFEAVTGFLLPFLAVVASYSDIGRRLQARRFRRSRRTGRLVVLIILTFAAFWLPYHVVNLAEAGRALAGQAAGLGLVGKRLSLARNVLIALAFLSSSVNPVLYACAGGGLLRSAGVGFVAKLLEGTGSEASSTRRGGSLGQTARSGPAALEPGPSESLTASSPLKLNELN
Assay: [3H]LTB4 competition radioligand binding on HEK293 cells
pIC50: −log10 of the molar value.
measured_attribute: pIC50

Lab request: please report pIC50 under test system LTB4 receptor (Homo sapiens, UniProt Q15722) for CC/C=C\C/C=C\C[C@@H](O)/C=C/C=C/C=C\[C@@H](O)CCCC(=O)O [LTB5]
~6.30
